B1: mRNA-splicing (parent)
chain: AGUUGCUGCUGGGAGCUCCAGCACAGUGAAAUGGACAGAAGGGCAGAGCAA

# Variants of: B1
# Test Summary: exon inclusion enrichment index; higher = more inclusion; WT1 exon 5 minigene, HEK293
Label true when exon inclusion enrichment index is at or above 0.7; otherwise label false.

Asked: Hi, just wondering whether AGUUGAAGAAGGGAGCUCCAGCGCAGUGAAAUGGACAGAAGGGCAGAGCAA [C6A U7A C9A U10A A23G] shows exon inclusion enrichment index of 0.7 or higher.
Given back: true

Asked: Hi, just wondering whether AGUUACCACCGGGAGCUCCAGCAUCGUGAAAUGGACAGAAGGGCAGAGCAA [G5A U7C G8A U10C C24U A25C] shows exon inclusion enrichment index of 0.7 or higher.
Given back: true

Asked: Hi, just wondering whether AGUUUCUUUUGGGAGCUCUAGCACAGUGAAAUGGACAGAAGGGCAGAGCAA [G5U G8U C9U C19U] shows exon inclusion enrichment index of 0.7 or higher.
Given back: false
